molecular target: T1, huCD33-G69-Fc recombinant protein (human, UniProt P20138 18-259); test: BLI;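 further: biolayer interferometry: scFvs captured from periplasmic extracts on anti-V5-loaded streptavidin biosensors, antigen association for 2 min, buffer dissociation for 5 min, 1:1 Langmuir fit giving off-rate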
T1 construct: extracellular domain; also called CD33 R69G
T1 sequence (P20138 18-259 R69G): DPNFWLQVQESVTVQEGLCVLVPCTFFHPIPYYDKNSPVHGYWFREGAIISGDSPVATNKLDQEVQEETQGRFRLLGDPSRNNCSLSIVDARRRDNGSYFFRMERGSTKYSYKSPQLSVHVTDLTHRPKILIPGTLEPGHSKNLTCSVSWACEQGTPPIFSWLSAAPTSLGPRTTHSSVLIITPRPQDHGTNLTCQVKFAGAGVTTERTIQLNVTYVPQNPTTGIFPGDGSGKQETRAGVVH
measure.name: binding result

Example entries and their recorded answers appear below.
Polypeptide No. 126 (scFv, V domains shown, scFv) VH: EVQLLESGGGLVQPGGSLRLSCAASGFTFTTYDMHWVRQAPGKGLEWVAGINWNSVIIDYADSVKGRFTISRDNSKNTLYLQMNSLRAEDTAVYYCAKDLLYYYDSIGAFDIWGQGTMVTVSS VL: DIQMTQSPSSLSASVGDRVTITCRASQSISTWLAWYQQKPGKAPKLLIYAASSLQSGVPSRFSGSGSGTDFTLTISSLQPEDFATYYCQQSDTLPLTFGGGTKVEIKR : binds
Polypeptide No. 120 (scFv, V domains shown, scFv) VH: QVQLVQSGAEVKKPGASVKVSCKASGYTFTTYYMHWVRQAPGQGLEWMGWMNPNSGNTGYAQKFQGRVTMTRDTSTSTVYMELSSLRSEDTAVYYCARGHKVDSGYDPYGMDVWGQGTTVTVSS VL: DIQMTQSPSSLSASVGDRVTITCRASQSIGTYLHWYQQKPGKAPKLLIYAISTLQNGVPSRFSGSGSGTDFTLTISSLQPEDFATYYCQQSYSPPLTFGGGTKVEIKR : binds
Polypeptide No. 136 (scFv, V domains shown, scFv) VH: QVQLVQSGAEVKKPGASVKVSCKASGDTLTNHFVHWVRQAPGQGLEWMGWMNPNSGNTGYAQKFQGRVTMTRDTSTSTVYMELSSLRSEDTAVYYCARDPQMGAVAGGFDYWGQGTLVTVSS VL: DIQMTQSPSSLSASVGDRVTITCRASQRIGNWLAWYQQKPGKAPKLLIYAASSLQSGVPSRFSGSGSGTDFTLTISSLQPEDFATYYCQQSYSPPLTFGPGTKVDIKR : binds
Polypeptide No. 104 (scFv, V domains shown, scFv) VH: EVQLLESGGGLVQPGGSLRLSCAASGFTFSSSWMHWVRQAPGKGLEWVAVISYDGSEEYYADSVKGRFTISRDNSKNTLYLQMNSLRAEDTAVYYCARLTDYGDYVLGRYLSDWGQGTLVTVSS VL: DIQMTQSPSSLSASVGDRVTITCRASQGISSYLAWYQQKPGKAPKLLIYAASSLQSGVPSRFSGSGSGTDFTLTISSLQPEDFATYYCQQSYSIPPTFGQGTKLEIKR : binds
Polypeptide No. 105 (scFv, V domains shown, scFv) VH: EVQLLESGGGLVQPGGSLRLSCAASGFTFNNAWMTWVRQAPGKGLEWVAVISYDGSNKYYADSVKGRFTISRDNSKNTLYLQMNSLRAEDTAVYYCARMAVAGKGAFDIWGQGTMVTVSS VL: DIQMTQSPSSLSASVGDRVTITCRASQSIYSWLAWYQQKPGKAPKLLIYAASTLQSGVPSRFSGSGSGTDFTLTISSLQPEDFATYYCQQTYSTPVTFGQGTKVEIKR : binds
Polypeptide No. 137 (scFv, V domains shown, scFv) VH: QVQLVQSGAEVKKPGASVKVSCKASGYTFTDYYIHWVRQAPGQGLEWMGMVNPSGGSANYAQKFQGRVTMTRDTSTSTVYMELSSLRSEDTAVYYCAKDSAWQEPYYFDYWGQGTLVTVSS VL: DIQMTQSPSSLSASVGDRVTITCRASQGISSYLAWYQQKPGKAPKLLIYDASNLDTGVPSRFSGSGSGTDFTLTISSLQPEDFATYYCQQSYSTPLTFGGGTKVEIKR : binds
Polypeptide No. 130 (scFv, V domains shown, scFv) VH: QVQLVQSGAEVKKPGASVKVSCKASGGTFSNYAISWVRQAPGQGLEWMAWMNPNSGNTGYAQKFQGRVTMTRDTSTSTVYMELSSLRSEDTAVYYCARDGFIGFGELFSAFDIWGQGTMVTVSS VL: DIQMTQSPSSLSASVGDRVTITCRASQSIGTWLAWYQQKPGKAPKLLIYGATRLLSGVPSRFSGSGSGTDFTLTISSLQPEDFATYYCQQSYSTPPTFGQGTKLEIKR : binds
Polypeptide No. 94 (scFv, V domains shown, scFv) VH: QVQLVQSGAEVKKPGASVKVSCKASGYTFTTYDINWVRQAPGQGLEWMGWISGYNGNTGYAQKFQGRVTMTRDTSTSTVYMELSSLRSEDTAVYYCAKDMGYGDYPDAFDIWGQGTMVTVSS VL: DIVMTQSPLSLPVTPGEPASISCRSSQSLLHSNGYNYLDWYLQKPGQSPQLLIYAASTLQSGVPDRFSGSGSGTDFTLKISRVEAEDVGVYYCMQALQIPITFGQGTKVEIKR : binds
Polypeptide No. 118 (scFv, V domains shown, scFv) VH: EVQLVESGGGLVKPGGSLRLSCAASGFTISNAWMSWVRQAPGKGLEWVAHIWNDGSQKYYADSVKGRFTISRDDSKNTLYLQMNSLKTEDTAVYYCARDGALGVGPDDYWGQGTLVTVSS VL: DIVMTQSPLSLPVTPGEPASISCRSSQSLLHSNGYNYLDWYLQKPGQSPQLLIYAASSLQSGVPDRFSGSGSGTDFTLKISRVEAEDVGVYYCMQGLQTPHTFGGGTKVEIKR : binds

**Q:** Field request: binding result | item: Polypeptide No. 125 (scFv, V domains shown, scFv) VH: QVQLVQSGAEVKKPGASVKVSCKASGYSFTTYDIHWVRQAPGQGLEWMGWMNPNSGNTGYAQKFQGRVTMTRDTSTSTVYMELSSLRSEDTAVYYCATDHWVLGGFDYWGQGTLVTVSS VL: DIQMTQSPSSLSASVGDRVTITCQASQDISNYLNWYQQKPGKAPKLLIYAASTLQSGVPSRFSGSGSGTDFTLTISSLQPEDFATYYCQQYSYLPVTFGQGTKLEIKR
**A:** binds
